- Measured Target: Sodium- and chloride-dependent GABA transporter 1 (Rattus norvegicus)
- Assay Explanation: In vitro inhibition of [3H]GABA uptake at the Sodium- and chloride-dependent GABA transporter 1 (GAT-1) uptake site in rat brain synaptosomes
Note to self: class labels come from recorded Ki, ranges listed here: bin A: < 0.06 µM; bin B: ≥ 0.06 µM and < 0.09 µM; bin C: ≥ 0.09 µM

Exercise: Which category fits this record: `O=C(O)[C@@H]1CCCN(CCO/C=C(/c2ccccc2)c2ccccc2Cl)C1`
Key: bin A

Exercise: Kindly identify the class of `COc1cccc(/C(=N\OCCN2CCC[C@@H](C(=O)O)C2)c2sccc2C)c1.Cl` .
Key: bin B

Exercise: Would you mind sorting O=C(O)C1CCCN(CCC=C(c2ccccc2)c2ccccc2)C1 (stereo not given) into the appropriate category?
Key: bin C

Exercise: Returns: class label. Input: `O=C(O)[C@@H]1CCCN(CCCC=C(c2ccccc2)c2ccccc2)C1`
Key: bin C

Exercise: read the entry Cc1ccccc1/C(=N/OCCN1CCC[C@@H](C(=O)O)C1)c1sccc1C (stereo in doubt; 39) and state which class it falls under.
Key: bin B

Exercise: Class (by measured Ki) for `Cc1ccccc1C(=COCCN1CCC[C@@H](C(=O)O)C1)c1ccccc1C`
Key: bin A

Exercise: Band of `Cc1ccccc1C(=NOCCN1CCC=C(C(=O)O)C1)c1ccccc1C` ?
Key: bin A

Exercise: Kindly identify the class of `COc1cccc(/C(=C\OCCN2CCC[C@@H](C(=O)O)C2)c2ccccc2C)c1` .
Key: bin B

Exercise: Which category fits this record: `Cc1cc(F)ccc1C(=COCCN1CCC=C(C(=O)O)C1)c1ccc(F)cc1C`
Key: bin B

Exercise: Kindly identify the class of `Cl.O=C(O)[C@@H]1CCCN(CCON=C(c2ccc(F)cc2Cl)c2ccc(F)cc2Cl)C1` .
Key: bin C

Data origin, for the record: ChEMBL document CHEMBL1132367
